assay: CellTiter-Glo cell viability assay on Vero E6 cells; type: cell-based; conditions: African green monkey, CellTiter-Glo (ATP)
readout.label: CC50 at 2 days (µM)

O=P(O)(O)Oc1c2c(c(OP(=O)(O)O)c3c1C1CC3c3cc4c(cc31)C1CC4c3ccccc31)C1CC2c2cc3c(cc21)C1CC3c2ccccc21 [Compound 1, CLR01, reference compound] | 584

---

assay: Full 24-h PK profile; assay type: in vivo, mice; conditions: mouse, in vivo, sc, S.C.; 24-h profile, 7 time points; read-out: Blood T1/2 (converted)
readout.label: half-life (h)

O=P(O)(O)Oc1c2c(c(OP(=O)(O)O)c3c1C1CC3c3cc4c(cc31)C1CC4c3ccccc31)C1CC2c2cc3c(cc21)C1CC3c2ccccc21 [Compound 1, CLR01, reference compound] | 1.05

---

assay: Full 24-h PK profile; format: in vivo, mice; details: mouse, in vivo, sc; S.C.; 24-h profile; read-out: Blood Bioavailability
readout.label: bioavailability (%)

O=P(O)(O)Oc1c2c(c(OP(=O)(O)O)c3c1C1CC3c3cc4c(cc31)C1CC4c3ccccc31)C1CC2c2cc3c(cc21)C1CC3c2ccccc21 [Compound 1, CLR01, reference compound] | 69.7

---

molecular target: KAA; conditions: fluorometric titration in aqueous buffer at neutral pH; read-out: Dissociation constant Kd, KAA
readout.label: Kd

O=P(O)(O)Oc1c2c(c(OP(=O)(O)O)c3c1C1CC3c3cc4c(cc31)C1CC4c3ccccc31)C1CC2c2cc3c(cc21)C1CC3c2ccccc21 [Compound 1, CLR01, reference compound] | 30 µM
C#CCCOP(=O)(O)Oc1c2c(c(OP(=O)(O)O)c3c1C1CC3c3cc4c(cc31)C1CC4c3ccccc31)C1CC2c2cc3c(cc21)C1CC3c2ccccc21 [Compound 12] | 20 µM

---

Overview of recorded pKd for various molecules
molecular target: RGD; assay type: binding; conditions: fluorometric titration in aqueous buffer at neutral pH; read-out: Dissociation constant Kd, RGD
pKd: −log10 of the molar value.
readout.label: pKd

C#CCCOP(=O)(O)Oc1c2c(c(OP(=O)(O)O)c3c1C1CC3c3cc4c(cc31)C1CC4c3ccccc31)C1CC2c2cc3c(cc21)C1CC3c2ccccc21 [Compound 12] | 4.22
O=P(O)(O)Oc1c2c(c(OP(=O)(O)O)c3c1C1CC3c3cc4c(cc31)C1CC4c3ccccc31)C1CC2c2cc3c(cc21)C1CC3c2ccccc21 [Compound 1, CLR01, reference compound] | 4.07

---

assay: Full 24-h PK profile; assay type: in vivo, mice; settings: mouse, in vivo, sc, S.C.; 24-h profile, 7 time points; read-out: Blood AUC
readout.label: AUC (ng·h/mL)

O=P(O)(O)Oc1c2c(c(OP(=O)(O)O)c3c1C1CC3c3cc4c(cc31)C1CC4c3ccccc31)C1CC2c2cc3c(cc21)C1CC3c2ccccc21 [Compound 1, CLR01, reference compound] | 4740

---

Experiment: Full 24-h PK profile
Type: in vivo, mice
Conditions: mouse, in vivo, iv, I.V.; 24-h profile, 7 time points; read-out: Blood AUC
Protocol: Based on the 2-time-point screen results, a full 24-h PK profile has been obtained for compounds 13 and 14. In these experiments, the blood and brain levels were measured at 7 time points—0.3, 0.6, 1, 2, 4, 8, and 24 h. Data for 1 are given for reference.
readout.label: AUC (ng·h/mL)

O=P(O)(O)Oc1c2c(c(OP(=O)(O)O)c3c1C1CC3c3cc4c(cc31)C1CC4c3ccccc31)C1CC2c2cc3c(cc21)C1CC3c2ccccc21 [Compound 1, CLR01, reference compound] | 6800

---

assay: PK screening in mice, three routes, two time points; conditions: male, mouse, in vivo, iv, 2 mg/kg
readout.label: Kp at 40 min

O=P(O)(O)Oc1c2c(c(OP(=O)(O)O)c3c1C1CC3c3cc4c(cc31)C1CC4c3ccccc31)C1CC2c2cc3c(cc21)C1CC3c2ccccc21 [Compound 1, CLR01, reference compound] | 0

---

assay: PK screening in mice, three routes, two time points; conditions: male, mouse, in vivo, iv, 2 mg/kg
readout.label: Kp at 4 h

O=P(O)(O)Oc1c2c(c(OP(=O)(O)O)c3c1C1CC3c3cc4c(cc31)C1CC4c3ccccc31)C1CC2c2cc3c(cc21)C1CC3c2ccccc21 [Compound 1, CLR01, reference compound] | 0.002

---

Experiment: Full 24-h PK profile
Format: in vivo, mice
Conditions: mouse, in vivo, sc, S.C.; 24-h profile, 7 time points; read-out: Brain T1/2 (converted)
Method: Based on the 2-time-point screen results, a full 24-h PK profile has been obtained for compounds 13 and 14. In these experiments, the blood and brain levels were measured at 7 time points—0.3, 0.6, 1, 2, 4, 8, and 24 h. Data for 1 are given for reference.
readout.label: half-life (min)

O=P(O)(O)Oc1c2c(c(OP(=O)(O)O)c3c1C1CC3c3cc4c(cc31)C1CC4c3ccccc31)C1CC2c2cc3c(cc21)C1CC3c2ccccc21 [Compound 1, CLR01, reference compound] | 54

---

experiment: Full 24-h PK profile; format: in vivo, mice; conditions: mouse, in vivo, iv, I.V.; 24-h profile, 7 time points; read-out: Brain T1/2 (converted)
readout.label: half-life (h)

O=P(O)(O)Oc1c2c(c(OP(=O)(O)O)c3c1C1CC3c3cc4c(cc31)C1CC4c3ccccc31)C1CC2c2cc3c(cc21)C1CC3c2ccccc21 [Compound 1, CLR01, reference compound] | 4

---

experiment: PK screening in mice, three routes, two time points; conditions: male, mouse, in vivo, po, 10 mg/kg
readout.label: Kp at 4 h

O=P(O)(O)Oc1c2c(c(OP(=O)(O)O)c3c1C1CC3c3cc4c(cc31)C1CC4c3ccccc31)C1CC2c2cc3c(cc21)C1CC3c2ccccc21 [Compound 1, CLR01, reference compound] | 0

---

Experiment: PK screening in mice, three routes, two time points
Conditions: male, mouse, in vivo, 10 mg/kg
Procedure: Each compound was administered to the mice at 2 mg/kg intravenously (I.V.), 2 mg/kg subcutaneously (S.C.), or 10 mg/kg orally (P.O.).
readout.label: bioavailability at 40 min (%)

O=P(O)(O)Oc1c2c(c(OP(=O)(O)O)c3c1C1CC3c3cc4c(cc31)C1CC4c3ccccc31)C1CC2c2cc3c(cc21)C1CC3c2ccccc21 [Compound 1, CLR01, reference compound] | 0.5

---

test: PK screening in mice, three routes, two time points; settings: male, mouse, in vivo, po, 10 mg/kg
readout.label: Kp at 40 min

O=P(O)(O)Oc1c2c(c(OP(=O)(O)O)c3c1C1CC3c3cc4c(cc31)C1CC4c3ccccc31)C1CC2c2cc3c(cc21)C1CC3c2ccccc21 [Compound 1, CLR01, reference compound] | 0

---

experiment: PK screening in mice, three routes, two time points; details: male, mouse, in vivo, 2 mg/kg
readout.label: bioavailability at 40 min (%)

O=P(O)(O)Oc1c2c(c(OP(=O)(O)O)c3c1C1CC3c3cc4c(cc31)C1CC4c3ccccc31)C1CC2c2cc3c(cc21)C1CC3c2ccccc21 [Compound 1, CLR01, reference compound] | 101

---

assay: PK screening in mice, three routes, two time points; conditions: male, mouse, in vivo, sc, 2 mg/kg
readout.label: Kp at 40 min

O=P(O)(O)Oc1c2c(c(OP(=O)(O)O)c3c1C1CC3c3cc4c(cc31)C1CC4c3ccccc31)C1CC2c2cc3c(cc21)C1CC3c2ccccc21 [Compound 1, CLR01, reference compound] | 0

---

test: Full 24-h PK profile; format: in vivo, mice; conditions: mouse, in vivo, po; P.O.; 24-h profile, 7 time points; read-out: Blood T1/2 (converted)
readout.label: half-life

O=P(O)(O)Oc1c2c(c(OP(=O)(O)O)c3c1C1CC3c3cc4c(cc31)C1CC4c3ccccc31)C1CC2c2cc3c(cc21)C1CC3c2ccccc21 [Compound 1, CLR01, reference compound] | 1.3 h

---

assay: PK screening in mice, three routes, two time points; settings: male, mouse, in vivo, 10 mg/kg
readout.label: bioavailability at 4 h (%)

O=P(O)(O)Oc1c2c(c(OP(=O)(O)O)c3c1C1CC3c3cc4c(cc31)C1CC4c3ccccc31)C1CC2c2cc3c(cc21)C1CC3c2ccccc21 [Compound 1, CLR01, reference compound] | 0

---

Test: CellTiter-Glo cell viability assay on TZM-bl cells
Type: cell-based
Details: human, CellTiter-Glo (ATP)
Method: FIG. 1, panels A and B, illustrates the results of a cell viability assay with the new molecular tweezers. […] To determine the maximally tolerated concentrations of these derivatives in cell culture and to exclude cytotoxic effects in viral infectivity assays, a CellTiter-Glo® assay (Promega) was performed. This assay quantifies the amount of intracellular ATP. […] Cell viability was quantified two days later by measuring ATP levels.
readout.label: CC50 at 2 days

O=P(O)(O)Oc1c2c(c(OP(=O)(O)O)c3c1C1CC3c3cc4c(cc31)C1CC4c3ccccc31)C1CC2c2cc3c(cc21)C1CC3c2ccccc21 [Compound 1, CLR01, reference compound] | 964 µM
